Test system: OVCAR-4 ovarian
assay.name: NCI tumour cell line growth inhibition, 48 h
observation.type: TGI

- compound: "COC(=O)C1C2CCCN2OC1(C)CO (centres undefined)"
  observation.type: "TGI"
  observed: "> 100 µM"
- compound: "COC(=O)C(Cc1nc2ccccc2[nH]c1=O)C(=O)C(=O)Nc1ccc(OC)cc1[N+](=O)[O-] (centres undefined)"
  observation.type: "TGI"
  observed: "> 100 µM"
- compound: "C[C@]12CC[C@H]3[C@@H](C[C@@H]4N=C(c5ccc(O)cc5)S[C@@]45C[C@H](O)CC[C@]35C)[C@@H]1CC[C@@H]2O"
  observation.type: "TGI"
  observed: "> 100 µM"
- compound: "CCNCCCCNCC"
  observation.type: "TGI"
  observed: "> 3750 µM"
- compound: "CCN1CCN(C(=O)[C@]23CCC(C)(C)C[C@@H]2C2=CC[C@@H]4[C@@]5(C)C/C(=C/c6cccnc6)C(=O)C(C)(C)[C@@H]5CC[C@@]4(C)[C@]2(C)CC3)CC1"
  observation.type: "TGI"
  observed: "7.85 µM"
- compound: "COc1ccc(-c2nnc(CCCCCCCCc3nnc(-c4ccc(OC)cc4)o3)o2)cc1"
  observation.type: "TGI"
  observed: "> 100 µM"
- compound: "NC[C@@](O)(c1ccc(Cl)cc1)c1ccc(-c2cn[nH]c2)cc1"
  observation.type: "TGI"
  observed: "2.86 µM"
- compound: "O=C1NN(c2ccccc2)C(=O)C2C3c4ccccc4C(c4ccccc43)C12 (centres undefined)"
  observation.type: "TGI"
  observed: "> 100 µM"
- compound: "CCOC(=O)c1cc(-c2ccc(Cl)cc2)c([N+](=O)[O-])n1C"
  observation.type: "TGI"
  observed: "> 10 µM"
